system: Ps. aeruginosa NCTC 10490; test: Antibacterial activity (MIC), Ps. aeruginosa NCTC 10490; assay type: cell-based; settings: Pseudomonas aeruginosa, NCTC10490, read-out: MIC (minimum effective inhibitory concentration)
MEASUREMENT KIND: MIC

| COMPOUND | REPORTED RESULT |
| --- | --- |
| Nc1nc(CO/N=C(\C(=O)NC2C(=O)N3C(C(=O)[O-])=C(C[n+]4ccccc4)CSC23)c2csc(N)n2)cs1 (stereo not drawn) | ≤ 0.2 µg/mL |
| Nc1nc(CO/N=C(\C(=O)NC2C(=O)N3C(C(=O)[O-])=C(C[n+]4ccc(CO)cc4)CS[C@H]23)c2csc(N)n2)cs1 (stereo partly drawn) | ≤ 0.2 µg/mL |
| Cn1nnnc1SCC1=C(C(=O)O)N2C(=O)C(NC(=O)/C(=N\OCc3csc(N)n3)c3csc(N)n3)C2SC1 (stereo not drawn) | ≤ 0.2 µg/mL |
